B1: TFE3 (parent)
chain: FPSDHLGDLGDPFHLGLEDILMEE

variants of: B1; assay: protein stability index of a GFP-peptide fusion (GPS, HEK-293T) (PSI 1-6); higher = more stable; conditions: c terminus: a fixed tail appended;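 also: lentivirally expressed fusions sorted by FACS into six bins by GFP to DsRed ratio, PSI derived from sequencing read proportions per bin multiplied by bin number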
Catalogue of variants with associated protein stability index
Give only the figure.

ALTERATION	REPORTED_VALUE
P2M	3.25
G10N	2.97
E24G	2.91
I20N	4.29
L6S	3.35
P2Y	3

Indicate its recorded protein stability index; the variant in question is E23T
3.24

// fetch protein stability index given entry G10C
2.93

Return value of protein stability index for input I20M , no commentary.
3.63

Give protein stability index for F1G
5.12

Fill in protein stability index for record G7Y
3.22
